Catalogue of compounds with associated melting point

// below: answered compounds
INSERT INTO assay_data (compound, result) VALUES
  ('O=C(CC(c1cc2ccccc2s1)c1c[nH]c2ccccc12)c1ccccc1 (stereo not shown) [Compound 3n]', '159 to 160 °C'),
  ('O=C(CC(c1cc2ccccc2o1)c1c[nH]c2ccccc12)c1ccc(F)cc1 (stereo not shown) [Compound 3b]', '157 to 158 °C'),
  ('COc1cccc(C(=O)CC(c2cc3ccccc3o2)c2c[nH]c3cc(F)ccc23)c1 (stereo not shown) [Compound 3m]', '154 to 155 °C');

Consider the record given below.
So for O=C(CC(c1cc2ccccc2o1)c1c[nH]c2ccccc12)c1ccccc1 (stereo not shown) [Compound 3a] , the logged melting point turned out to be 114 to 115 °C

Attribution: paper PMC8070033
